tested on: hPSC-SCs
Where a name gives a salt, the structure may show the parent alone.
So I've got a bunch of compounds here, and I need their z.score.t values.
Answers are plain numbers.

In the examples that follow, each entry is paired with its recorded z.score.t.
compound	observable	experimental.value
CN(N=O)C(=O)N[C@H]1C(O)O[C@H](CO)[C@@H](O)[C@@H]1O (mixture of isomers) [Streptozotocin]	z.score.t	0.03421
N[C@@H](Cc1cc(I)c(Oc2cc(I)c(O)c(I)c2)c(I)c1)C(=O)O [Thyroxine (L)]	z.score.t	−0.8478
CC(COc1ccccc1)N(CCCl)Cc1ccccc1 (stereo not shown) [Phenoxybenzamine hydrochloride]	z.score.t	0.03421
Cn1c(=O)c2[nH]cnc2n(C)c1=O.O [Theophylline monohydrate]	z.score.t	−1.123
COc1cccc2c1C(=O)c1c(O)c3c(c(O)c1C2=O)C[C@@](O)(C(C)=O)C[C@@H]3O[C@H]1C[C@H](N)[C@H](O)[C@H](C)O1 [Daunorubicin hydrochloride]	z.score.t	−1.999

Hey, quick one: what's z.score.t for each of these?
1. CC1=CC(=O)C2=C(C)CC[C@@H]3[C@H](OC(=O)[C@H]3C)[C@@H]12 [Leucomisine]
2. CCC1(C)CC(=O)NC(=O)C1 [Bemegride]

// result
1. 1.214
2. 0.3241
